- Tested on: Salmonella typhi
- assay_info: Antimicrobial activity against Salmonella enterica subsp. enterica serovar Typhi MTCC 733 by paper disk diffusion method
- Assay type: functional
endpoint_label: inhibition zone (IZ) (mm)
Please respond with the number in mm and leave the unit unwritten.

Exercise: Value lookup for inhibition zone (IZ); key = N#Cc1ccc(Nc2nc(Oc3ncnc4ccccc34)nc(N3CCN(Cc4ccccc4)CC3)n2)cc1C(F)(F)F
Key: 23

Exercise: Another molecule to check: CC(=O)N1CCN(c2nc(Nc3ccc(C#N)c(C(F)(F)F)c3)nc(Oc3ncnc4ccccc34)n2)CC1
Key: 24

Exercise: Another molecule to check: N#Cc1ccc(Nc2nc(Oc3ncnc4ccccc34)nc(N3CCN(c4ccccn4)CC3)n2)cc1C(F)(F)F
Key: 21

Exercise: Another molecule to check: N#Cc1ccc(Nc2nc(Oc3ncnc4ccccc34)nc(N3CCN(c4ccccc4F)CC3)n2)cc1C(F)(F)F
Key: 26

Reference for the values: ChEMBL document CHEMBL3044572
